# System: UACC-257 melanoma
# assay.info: NCI-60 one-dose screen, 48 h (100 = growth as untreated, 0 = no growth, -100 = all killed)
# particulars: 10 µM unless noted
This is part of a sample that, as a whole, favours compounds with a hit. Of some 83,000 tested, about 20% had one in any assay. Active and inactive are the calls of the source. The calls were made as follows: active = growth percent below 10; inactive = the rest.
metric: growth

- molecule: "Nc1ccn(C2CC(N)C(CO)O2)c(=O)n1 (stereo not drawn)"
  growth: "96% (inactive)"
- molecule: "Cc1ccc(S(N)(=O)=O)cc1Cl"
  growth: "109% (inactive)"
- molecule: "O=S(=O)(O)c1cccnc1"
  growth: "123% (inactive)"
- molecule: "Nc1ccc(F)c(Cl)c1F"
  growth: "118% (inactive)"
- molecule: "CC(=O)c1cccs1"
  growth: "96.3% (inactive)"

Now turn to the next molecule.
Data point: CC(C)C(=O)OCCOc1ccc(C(C)(C)C)cc1 ; growth = 87.7% (inactive)

----------
# Tested on: HOP-62 NSCLC
# assay.info: NCI-60 one-dose screen, 48 h (100 = growth as untreated, 0 = no growth, -100 = all killed)
# particulars: 10 µM unless noted
This is part of a sample that, as a whole, favours compounds with a hit. Of some 83,000 tested, about 20% had one in any assay.
Listed here: items and their measured growth.
I only need the number, in %, no unit after it.

Answered examples (2):
- molecule: "C[C@H](CCC[C@H](C)OS(=O)(=O)c1ccccc1)OS(=O)(=O)c1ccccc1"
  system: "HOP-62 NSCLC"
  growth (%): 99.9
- molecule: "CC(C)c1ccc(C(=O)OCCCl)cc1"
  system: "HOP-62 NSCLC"
  growth (%): 82.2

Data point: C#CC(O)c1ccccc1 (stereo not drawn) ; growth = 108

Data point: OCC1OC(n2ccc3c2ncn2ncnc32)C(O)C1O (stereo not drawn) ; growth = 37.3

Data point: C=C1C(=O)C2CCN1CC2 ; growth = 101

Data point: CN1CCN(C(=S)S)CC1 ; growth = 108

----------
# System: EKVX NSCLC
# assay.info: NCI-60 one-dose screen, 48 h (100 = growth as untreated, 0 = no growth, -100 = all killed)
# particulars: 10 µM unless noted
This is part of a sample that, as a whole, favours compounds with a hit. Of some 83,000 tested, about 20% had one in any assay.
metric: growth (%)
I only need the number, in %, no unit after it.

- compound: "COC1OC(CO)C(OC)C(O)C1O (stereo unspecified)"
  system: "EKVX NSCLC"
  growth / %: 103

Data point: CCC(=O)Oc1c(C)cc(O)c2ccccc12 ; growth = 97

Data point: COc1ccc(NNS(=O)(=O)O)cc1 ; growth = 104

Data point: COc1ccc(Nc2cc(Cl)ccc2C(=O)O)cn1 ; growth = 130

Data point: O=C(Nc1ccc([N+](=O)[O-])cc1)C(=O)Nc1ccc([N+](=O)[O-])cc1 ; growth = 103

Data point: O=C(NC1CCCCC1)c1ccc(Cl)cc1 ; growth = 98.5

----------
# Test system: SF-539 CNS
# assay.info: NCI-60 one-dose screen, 48 h
# particulars: 10 µM unless noted
The panel holds about 83,000 compounds, 20% with a hit somewhere; the sample as a whole holds those more often. Active and inactive are the calls of the source. The calls were made as follows: active = growth percent below 10; inactive = the rest.
Lab note: assign the record to one of yes (1) = active, no (0) = inactive

For orientation, consider the following solved cases.
- compound: "Cc1nc(O)cc(=O)[nH]1"
  cat: "no (0)"
- compound: "Nc1ccc(F)c(Cl)c1F"
  cat: "no (0)"
- compound: "C#CC(O)c1ccccc1 (configuration not stated)"
  cat: "no (0)"

Prompt line: In this assay, the call recorded for C[C@H](CCC[C@H](C)OS(=O)(=O)c1ccccc1)OS(=O)(=O)c1ccccc1 was what?
Response line: no (0)

Prompt line: In this assay, the call recorded for CSCC[C@@H]1C(=O)N(C)[C@H](C(C)(C)C)N1C(=O)c1ccccc1 was what?
Response line: no (0)

----------
# System: UO-31 renal
# assay.info: NCI-60 one-dose screen, 48 h
# particulars: 10 µM unless noted
The panel holds about 83,000 compounds, 20% with a hit somewhere; the sample as a whole holds those more often. The source made the active and inactive calls. How the source made its calls: active means growth percent below 10; inactive means the rest.
Lab note: assign the record to one of t (active), f (inactive)

For orientation, consider the following solved cases.
- compound: "Cc1ccc(Cc2ccc(C)cc2)cc1"
  cat: "f"
- compound: "CCCOCc1cn[nH]n1"
  cat: "f"
- compound: "CCCCOC(=O)c1ccccc1O"
  cat: "f"
- compound: "COc1ccc(/C=N/NC(=O)COCC(=O)N/N=C/c2ccc(OC)cc2)cc1"
  cat: "f"
- compound: "CCCCCCCCCCCCCCCCCCSC(=N)N"
  cat: "f"

Prompt line: In this assay, the call recorded for COc1nc(Nc2cccc(C(F)(F)F)c2)nc(OC)n1 was what?
Response line: f

Prompt line: In this assay, the call recorded for COC(=O)c1ccc([N+](=O)[O-])c(C)c1 was what?
Response line: f

Prompt line: In this assay, the call recorded for CC(C)c1ccccc1NC(=O)N1CCC(C(C)C)CC1 was what?
Response line: f

Prompt line: In this assay, the call recorded for Nc1nc(Cl)cc(Cl)n1 was what?
Response line: f

Prompt line: In this assay, the call recorded for Nc1cccc2cccc(O)c12 was what?
Response line: f

Prompt line: In this assay, the call recorded for C=CC1=NC(C)(C)CC(C)O1 (stereo unspecified) was what?
Response line: f

Prompt line: In this assay, the call recorded for COc1ccc(NNS(=O)(=O)O)cc1 was what?
Response line: f

Prompt line: In this assay, the call recorded for CCOc1ccc(NC(=S)N2CCC(CCCC3CCN(C(=S)Nc4ccc(OCC)cc4)CC3)CC2)cc1 was what?
Response line: t

Prompt line: In this assay, the call recorded for CCOC(=O)/C(C#N)=C\c1c[nH]c2ccccc12 was what?
Response line: f

Prompt line: In this assay, the call recorded for O=C1NC(=O)C(c2ccccc2)O1 (stereo unspecified) was what?
Response line: f

Prompt line: In this assay, the call recorded for NC(=O)c1cc2c3ccccc3ccn2c1-c1ccccc1 was what?
Response line: f

Prompt line: In this assay, the call recorded for Clc1ccc(-c2noc(/C=C\c3ccccc3)n2)cc1 was what?
Response line: f

Prompt line: In this assay, the call recorded for O=C(NCc1ccccc1)c1cccc([N+](=O)[O-])c1 was what?
Response line: f

Prompt line: In this assay, the call recorded for CN1CCN(C(=S)S)CC1 was what?
Response line: f

Prompt line: In this assay, the call recorded for C=C1C(=O)C2CCC1C2 (stereo unspecified) was what?
Response line: f

----------
# Test system: OVCAR-8 ovarian
# assay.info: NCI-60 one-dose screen, 48 h
# particulars: 10 µM unless noted
Compounds without any hit were thinned out: in the full panel of roughly 83,000, 20% have a hit. Calls of active or inactive are those of the source. Rule for the calls: active = growth percent below 10; inactive = the rest.
Lab note: assign the record to one of 1.0 = active, 0.0 = inactive

For orientation, consider the following solved cases.
- compound: "N#CC1(O)CCCCC1"
  cat: 0.0
- compound: "O=C(OCC1CCCO1)c1ccc([N+](=O)[O-])cc1 (centres undefined)"
  cat: 0.0
- compound: "N=C(N)c1nn(C2OC(CO)C(O)C2O)c2nc[nH]c(=O)c12 (centres undefined)"
  cat: 1.0
- compound: "C=CCc1cc(OC)c(O)c(OC)c1"
  cat: 0.0
- compound: "CC(=O)OC/C(C)=C\\CC(C)COC(C)=O (centres undefined)"
  cat: 0.0
- compound: "CC(C)(C)NCCC(O)c1cc(C(F)(F)F)nc2c(C(F)(F)F)cccc12 (centres undefined)"
  cat: 0.0
- compound: "CN(C)c1ccc2c(N(C)C)cc(N(C)C)nc2c1"
  cat: 0.0
- compound: "C=C1C(=O)C2CCC1C2 (centres undefined)"
  cat: 0.0
- compound: "COc1nc(Nc2cccc(C(F)(F)F)c2)nc(OC)n1"
  cat: 0.0
- compound: "C1=NCCc2ccccc21"
  cat: 0.0

Prompt line: In this assay, the call recorded for CC(=O)c1cc(O)ccc1O was what?
Response line: 0.0

Prompt line: In this assay, the call recorded for CC(O)C(F)(F)C(F)(F)C(F)(F)F (centres undefined) was what?
Response line: 0.0

Prompt line: In this assay, the call recorded for O=[N+]([O-])c1ccc2[nH]c(=S)n(/C=C(/c3ccc(Cl)cc3Cl)S(=O)(=O)Cc3ccc(Cl)cc3Cl)c2c1 was what?
Response line: 0.0

----------
# Test system: HCT-15 colon
# assay.info: NCI-60 one-dose screen, 48 h
# particulars: 10 µM unless noted
# Description: Growth inhibition of the HCT-15 human tumor cell line is measured as a screen for anti-cancer activity. Cells are grown in 96 well plates and exposed to the test compound for 48 hours. Compounds are tested at a single concentration, which is 10^-5 M for most compounds. The reported endpoint is percent growth (GI% or GIPRCNT), where numbers from 0 - 100% represent growth inhibition, and numbers from -100% - 0 represent cell death. For example, a value of 40 represents 60% growth inhibition. […]
Compounds without any hit were thinned out: in the full panel of roughly 83,000, 20% have a hit. Activity calls are given as the source filed them. How the source made its calls: active means growth percent below 10; inactive means the rest.
Lab note: assign the record to one of True = active, False = inactive

For orientation, consider the following solved cases.
- compound: "O=S(=O)(OCCOS(=O)(=O)c1ccccc1)c1ccccc1"
  cat: "False"
- compound: "CC1CC2C3CCC4=CC(=O)CCC4(C)C3CCC2(C)C1(O)C(=O)CO (configuration not stated)"
  cat: "False"

Prompt line: In this assay, the call recorded for Nc1ccccc1SC1CC(=O)N(c2ccc(Cl)c(Cl)c2)C1=O (configuration not stated) was what?
Response line: False

Prompt line: In this assay, the call recorded for N#Cc1ccc(OC(=O)Nc2cc(Cl)cc(Cl)c2)cc1 was what?
Response line: True

Prompt line: In this assay, the call recorded for Oc1cccnc1CN1CCCC1 was what?
Response line: False

Prompt line: In this assay, the call recorded for C/C(Cc1ccccc1)=N\O was what?
Response line: False

Prompt line: In this assay, the call recorded for CC(=O)NNC(=S)/N=C\C(C(=O)c1ccccc1)=C(/O)c1ccccc1 was what?
Response line: False

Prompt line: In this assay, the call recorded for Clc1ccc(/C=C/c2ccccn2)cc1 was what?
Response line: False

Prompt line: In this assay, the call recorded for C=C1CC2(OC1=O)C(=O)N(C)c1ccc(I)cc12 (configuration not stated) was what?
Response line: True

Prompt line: In this assay, the call recorded for Nc1ncc([N+](=O)[O-])cn1 was what?
Response line: False

Prompt line: In this assay, the call recorded for NC(=O)OCCO was what?
Response line: False

Prompt line: In this assay, the call recorded for CCC(=O)C1C(=O)c2ccccc2C1=O was what?
Response line: False

Prompt line: In this assay, the call recorded for ClCC(Cl)[C@@H]1CC2C=CC1C2 (some centres not stated) was what?
Response line: False

Prompt line: In this assay, the call recorded for Cc1nc(O)cc(=O)[nH]1 was what?
Response line: False

Prompt line: In this assay, the call recorded for CCOC(=O)CSCCC#N was what?
Response line: False

Prompt line: In this assay, the call recorded for COc1cc(C(=O)O)c(O)c(C(C)(C)C)c1 was what?
Response line: False

Prompt line: In this assay, the call recorded for O=C(NCCc1ccccc1)/C(=C\c1ccc(Cl)cc1Cl)NC(=O)c1ccccc1 was what?
Response line: False
